Source of measurements: ChEMBL document CHEMBL1201862

Each record here notes measured GI50.
tested on: RPMI-8226; experiment: NCI tumour cell line growth inhibition, 48 h
The source made the active and inactive calls. Rule as the data show it: active = GI50 up to about 1.1 µM and inactive = higher.

molecule | systemUnderTest | GI50
Fc1ccc(-c2sc(-c3ccsc3)cc2Cc2ccsc2)cc1 | RPMI-8226 | > 10 µM (inactive)
Cc1n[nH]c(=O)n1C1CCCC1 | RPMI-8226 | > 100 µM (inactive)
NC1CNC(=O)c2cscc21 (centres undefined) | RPMI-8226 | > 100 µM (inactive)
CC1CN1c1c(C(=O)/C=C/c2ccc(F)cc2)c(-c2ccccc2)nn(C)c1=O (centres undefined) | RPMI-8226 | 9.46 µM (inactive)

----------
tested on: OVCAR-8; test: NCI tumour cell line growth inhibition, 48 h
The source made the active and inactive calls. Cut-off read from the data, not from the text of the source: active = GI50 up to about 1.1 µM and inactive = higher.

compound | GI50
COc1ccc(CNc2cnc3cc(N)ccc3n2)cc1 | > 100 µM (inactive)
CC(C)CCS(=O)(=O)OCCCCOS(=O)(=O)CCC(C)C | > 100 µM (inactive)
c1nc(OCC2CCCCC2)c2nc[nH]c2n1 | 47.2 µM (inactive)
C[n+]1ccc(/C2=C3\C=CC(=N3)/C(c3cc[n+](C)cc3)=c3/cc/c([nH]3)=C(\c3cc[n+](C)cc3)C3=N/C(=C(/c4cc[n+](C)cc4)C4C=CC2N4)C=C3)cc1 | > 100 µM (inactive)
CSc1nnc(SC)nn1 | 18.6 µM (inactive)
CC(C)(CO)CNc1nc(N)nc(Cl)c1C=O | 22.5 µM (inactive)
COc1ccc(OC(C)C(=O)O)c2c1CCCC2=O (centres undefined) | > 100 µM (inactive)
CC(=O)N(C(C)=O)n1c(Cc2ccc(Cl)cc2)n[nH]c1=O | > 100 µM (inactive)
CCCCC1=C(C(=O)N2CCOCC2)C2(OCCO2)C1Cl (centres undefined) | 45.9 µM (inactive)

----------
test system: NCI-H23; experiment: NCI tumour cell line growth inhibition, 48 h
Activity calls are given as the source filed them. Cut-off read from the data, not from the text of the source: active = GI50 up to about 1.1 µM and inactive = higher.
Labels: class 1 for active, class 0 for inactive

compound | classLabel
Cc1cccc(C)c1NC(=O)C1C(=O)N(c2c(C)cccc2C)C(=O)/C1=N\NC(N)=S (configuration not stated) | class 0
Cc1nc2ccc(S(=O)(=O)Nc3ccccn3)cc2c(=O)n1NS(=O)(=O)c1ccccn1 | class 0
COC1/C=C/C(C)C(C(C)C(OC)C(C)CCC(=O)C(C)C(CC(=O)O)OC)OC(=O)/C=C/C=C(\C)CC(OC)C(OC)C2=CC(=O)O[C@@H](C(C)C(OC)CC(OC)/C=C/C(C)C(O)C1)[C@H]2O (some centres not stated) | class 1
C[n+]1ccc(/C2=C3\C=CC(=N3)/C(c3cc[n+](C)cc3)=c3/cc/c([nH]3)=C(\c3cc[n+](C)cc3)C3=N/C(=C(/c4cc[n+](C)cc4)C4C=CC2N4)C=C3)cc1 | class 0
Cc1n[nH]c(=O)n1C1CCCC1 | class 0
Cc1cnc2c(c1)C(=O)C1=C(OC(C)(C)CC1O)C2=O (configuration not stated) | class 0
Cc1ccc(S(=O)(=O)NCCN(CCNS(=O)(=O)c2ccc(C)cc2)S(=O)(=O)c2ccc(C)cc2)cc1 | class 0

----------
tested on: LOX IMVI; experiment: NCI tumour cell line growth inhibition, 48 h
Active and inactive are the calls of the source. No stated cut-off is given here; in the data, active = GI50 up to about 1.1 µM and inactive = higher.

molecule | GI50
S=C(Nc1ccc(/N=N/c2ccccc2)cc1)SCc1ccccc1 | 18.7 µM (inactive)
CCOC(=O)c1nc2ccc([N+](=O)[O-])cc2c2c1CCO2 | > 100 µM (inactive)
COc1cccc(C2CC(C)(N3CCCC3)Oc3cc4c(cc32)OCO4)c1O (stereo not given) | 28.8 µM (inactive)
OCC1C(/C=C/c2ccoc2)ON2CCCC12 (stereo not given) | > 100 µM (inactive)
CCOC(=O)c1sc2nc(SC)nc(Nc3ccc4c(c3)OCCO4)c2c1N | 30.6 µM (inactive)

----------
tested on: TK-10; experiment: NCI tumour cell line growth inhibition, 48 h
The source made the active and inactive calls. Cut-off read from the data, not from the text of the source: active = GI50 up to about 1.1 µM and inactive = higher.
Outcomes: active, inactive

compound | classLabel
O=C(O)c1ccc(C(O)(c2ccccc2)c2ccccc2)cc1 | inactive
CCN/C(=N\Nc1ccc([N+](=O)[O-])cc1)P(=O)(OC(C)C)OC(C)C | inactive
O=C1c2cccc3cccc(c23)C2NCCCN12 (stereo not drawn) | inactive
C=C1C(=O)O[C@@H]2[C@@H]3O[C@@H](C[C@@H]13)[C@](C)(O)CC/C=C(\C)CCC[C@@H]2C | inactive
Cc1c(C(=O)CC(=O)C(=O)NC2C3CC4CC(C3)CC2C4)[n+]([O-])c2ccccc2[n+]1[O-] (stereo not drawn) | inactive
C[C@]12CC[C@H](O)C[C@@H]1CC[C@@H]1[C@@H]2CC[C@]2(C)[C@@H](C3=CC(=O)OC3)CC[C@]12O | inactive
COc1ccc(C=O)cc1OS(=O)(=O)C(F)(F)C(F)(F)C(F)(F)C(F)(F)F | inactive
O=P(O)(O)C(NCC(O)CN1CCOCC1)P(=O)(O)O (stereo not drawn) | inactive
CC1=CC(=O)N2[C@H](OC[C@@H]2C(C)C)O1 | inactive
Nc1ccccc1.O=P(O)(OP(=O)(O)c1ccccc1)c1ccccc1 | inactive
CC(C)=CCC[C@@H](C)C1=CC(=O)C(C)=C(O)C1=O | inactive
Nc1ncnc2c(C3OC(CO)C(O)C3O)scc12 (stereo not drawn) | active
N#Cc1c(N)n(-c2nc3ccccc3s2)c(=O)c2cc([N+](=O)[O-])ccc12 | inactive

----------
system: MOLT-4; assay: NCI tumour cell line growth inhibition, 48 h
Active and inactive are the calls of the source. No stated cut-off is given here; in the data, active = GI50 up to about 1.1 µM and inactive = higher.
Classes used: 1 (active), 0 (inactive)

compound | classLabel
CNC(=S)NNC(=O)c1c(C)nc2sccn12 | 0
COC(=O)/C(=C(/C)c1ccco1)P(=O)(OC)OC | 0
CC(=O)OC(CC(C)C)P1(=O)N(CC(C)(C)C)[C@@H]2CCCC[C@H]2N1CC(C)(C)C (stereo partly specified) | 0
COC(=O)C(O)P(=O)(OC)OC (stereo unspecified) | 0
C=CC(=O)N1C/C(=C\c2ccccc2)C(=O)/C(=C/c2ccccc2)C1 | 1
CCOC(=O)c1sc2nc(SC)nc(Nc3ccc4c(c3)OCCO4)c2c1N | 0
COc1ccc(CNc2cnc3cc(N)ccc3n2)cc1 | 0
Cc1nc(Nc2ccc(Cl)cc2)sc1C(=O)NNC(=O)C(=O)NN | 0
Cc1cc(=O)[nH]c(-n2[nH]c3c(c2=O)CCCC3)n1 | 0
OCCCNCc1ccccn1 | 0
COC1C(OC(=S)Nc2ccccc2)c2ccccc2N1C(C)=O (stereo unspecified) | 0
O=C1C=C2SC3C[C@@]24CC1[N+]1=c2c4c(c(O)c4c2=C(C=N4)CC1)N3 | 0
Cc1c(C2Cc3ccccc3N2C(=O)/C=C\C(=O)O)c2ccccc2n1C (stereo unspecified) | 0
CSC1=C(C#N)C(=O)N(c2ccc(C)cc2)C(=O)C1C#N (stereo unspecified) | 0
O=c1cc(C(F)(F)F)c2cc3c(cc2o1)NCCC3 | 0
N#CC1(C#N)C(c2ccc(C3C(C#N)(C#N)C3(C#N)C#N)cc2)C1(C#N)C#N | 0
CNc1nc(=S)[nH]c2sc3c(c12)CCCC3 | 0
c1ccc(OCc2nnc3n2N=C(c2ccccc2)CS3)cc1 | 0
CCCCC1=C(C(=O)N2CCOCC2)C2(OCCO2)C1Cl (stereo unspecified) | 0
CCOP(=O)(OCC)C(Nc1cccc(F)c1)c1ccccc1 (stereo unspecified) | 0
COc1ccc2c(c1)-c1nc(=S)n(CCCN(C)C)c3ccc([N+](=O)[O-])c(c13)N2 | 1

----------
system: MDA-MB-231; test: NCI tumour cell line growth inhibition, 48 h
Calls of active or inactive are those of the source. No stated cut-off is given here; in the data, active = GI50 up to about 1.1 µM and inactive = higher.
Outcomes: active, inactive

molecule | classLabel
O=c1c2cc(S(=O)(=O)Nc3ccccc3Cl)ccc2ncn1NS(=O)(=O)c1ccc(Br)cc1 | inactive
CCCCC1=C(C(=O)N2CCOCC2)C2(OCCO2)C1Cl (stereo not drawn) | inactive
O=c1[nH]nc(Cc2ccc(Cl)cc2)n1O | inactive
O=C(CBr)c1ccc2cc(Br)c3ccccc3c2c1 | inactive
NCCCc1nonc1C(=O)O | inactive
O=C(O)c1ccc(OCc2nc3cc(C(F)(F)F)ccc3nc2-c2ccccc2)cc1 | inactive
COC(C(=O)C(O)C(C)O)C1Cc2cc3cc(OC4CC(OC(C)=O)C(OC5CC(O)C(OC)C(C)O5)C(C)O4)cc(O)c3c(O)c2C(=O)C1OC1CC(OC2CC(OC3CC(C)(O)C(OC(=O)C(C)C)C(C)O3)C(O)C(C)O2)C(O)C(C)O1 (stereo not drawn) | active
CCOP(=O)(OCC)C(Nc1cccc(F)c1)c1ccccc1 (stereo not drawn) | inactive
CCCCCCCc1c(Cl)nc(Cl)nc1Cl | inactive
CC(C)(CN)SCc1ccccc1 | inactive
CSc1ccc2c(cc1=O)[C@@H](NC(=O)c1ccc([N+](=O)[O-])cc1)CCc1cc(O)c(O)c(O)c1-2 | inactive
OC(Cc1cccnc1)(c1ccccc1)c1ccccc1 | inactive
Cc1nc2ccc(S(=O)(=O)Nc3ccccn3)cc2c(=O)n1NS(=O)(=O)c1ccccn1 | inactive
